Values were extracted from PubChem BioAssay (NCATS).

# Test Method Notes: Viability qHTS for spleen associated tyrosine kinase inhibitor (SYKi) drug resistant MV4-11 cells (AID 1963824); note: nearly all actives have a fitted effect of over 35% in size
# Condition Set: SYKi-resistant MV4-11 viability, CellTiter-Glo, 72 h; series mostly up to 45 µM
Records with an inconclusive call do not appear. The source made the active and inactive calls. Calls come from the whole dose curve; as a rule, active = well fitted cell-killing curve with a large enough effect; inconclusive = small, poorly fitted or top-dose-only effect, or effect the other way; inactive = no such curve, though single readings can be large or run the other way.
Your response should consist of one outcome taken from active, inactive

Here's what some known entries look like.
>>> discrete_label("CC(C)=CCC/C(C)=C/CO[C@@H]1O[C@H](CO[C@@H]2O[C@@H](CO)[C@H](O)[C@H]2O)[C@@H](O)[C@H](O)[C@H]1O")
"inactive"
>>> discrete_label("CC(=O)O[C@@H]1[C@@H](O)[C@H](O[C@@H]2[C@@H](O)[C@@H](O)[C@H](O[C@H]3[C@H](O[C@H]4[C@H](O[C@H]5CC[C@@]6(C)C(CC[C@]7(C)C6CC=C6[C@@H]8CC(C)(C)CC[C@]8(C(=O)O)CC[C@]67C)[C@]5(C)CO)O[C@H](CO)[C@@H](O)[C@@H]4O)OC[C@@H](O)[C@@H]3O)O[C@H]2C)OC[C@H]1O (stereo partly drawn)")
"active"

Field: outcome | Entry: O=C(OC[C@H]1O[C@@H](Oc2ccccc2COC(=O)C2(O)C=CCCC2O)[C@H](O)[C@@H](O)[C@@H]1O)c1ccccc1 (stereo partly drawn)
inactive

---

# Test Method Notes: Quantitative highthroughput screen to assess conditional lethalithy of SEM cells grown in RPMI1640 with unreated serum (RPMI+s) (AID 1963883); note: nearly all actives have a fitted effect of over 35% in size
# Condition Set: SEM B-ALL cells, CellTiter-Glo viability, 48 h; series mostly up to 45.8 µM
Records with an inconclusive call do not appear. Active and inactive are the calls of the source. Calls come from the whole dose curve; as a rule, active = well fitted cell-killing curve with a large enough effect; inconclusive = small, poorly fitted or top-dose-only effect, or effect the other way; inactive = no such curve, though single readings can be large or run the other way.
Your response should consist of one outcome taken from active, inactive

Here's what some known entries look like.
>>> discrete_label("COc1cc(OC)cc(-c2ccc3ncc4ccc(=O)n(-c5ccc(N6CCNCC6)c(C(F)(F)F)c5)c4c3c2)c1")
"active"
>>> discrete_label("CC(C)NCC(O)c1ccc(NS(C)(=O)=O)cc1 (stereo unspecified)")
"inactive"
>>> discrete_label("COc1cc2c(Oc3ccc(-c4cnc(Nc5ccc(F)cc5)n(C)c4=O)cc3F)ccnc2cc1OCCCN1CCOCC1")
"active"

Field: outcome | Entry: C[C@H](CCC(=O)O)[C@H]1CCC2C3C[C@H](O)[C@@H]4C[C@H](O)CC[C@]4(C)C3CC[C@@]21C (stereo partly specified)
inactive

Another: COc1ccc2[nH]cc(CCNC(C)=O)c2c1
inactive

Another: Nc1nc(F)nc2c1ncn2[C@@H]1O[C@H](CO)[C@@H](O)[C@@H]1O
active

---

# Test Method Notes: Quantitative highthroughput screen to assess conditional lethalithy of P12 Ichikawa cells grown in RPMI1640 with untreated serum (RPMI+s) (AID 1963881); note: nearly all actives have a fitted effect of over 35% in size
# Condition Set: ATP luminescence, 48 h; viability; series mostly up to 45.8 µM
Results filed as inconclusive are left out. Calls of active or inactive are those of the source. Calls come from the whole dose curve; as a rule, active = well fitted cell-killing curve with a large enough effect; inconclusive = small, poorly fitted or top-dose-only effect; inactive = flat fitted curve, though single readings scatter. Peptide text beside a SMILES is read from it.
Your response should consist of one outcome taken from T for active, F for inactive

>>> discrete_label("CCOC(=O)C1=C(N)Oc2ccc(Br)cc2C1C(C#N)C(=O)OCC (centres undefined)")
"F"

Field: outcome | Entry: O=C(CCCCCCC(=O)Nc1ccccc1)NO
T

Another: CC[C@@]1(O)C(=O)OCc2c1cc1n(c2=O)Cc2cc3cc(O)ccc3nc2-1
T

Another: COC(=O)[C@H](Cc1ccccc1)NC(=O)[C@@H](N)CC(=O)O (H-Asp-Phe-OMe)
F

Another: CC(=O)NC[C@H]1CN(c2ccc(N3CCOCC3)c(F)c2)C(=O)O1
F

Another: O=C1c2c(O)cc(O)cc2O[C@H](c2cc(O)c(O)c(O)c2)[C@H]1O
F

---

# Test Method Notes: Viability qHTS for spleen associated tyrosine kinase inhibitor (SYKi) naive MV4-11 cells (AID 1963823); note: nearly all actives have a fitted effect of over 40% in size
# Condition Set: MV4-11 AML viability, CellTiter-Glo luminescence, 72 h; series mostly up to 45 µM
Inconclusive results are not listed. Activity calls are given as the source filed them. Calls come from the whole dose curve; as a rule, active = well fitted cell-killing curve with a large enough effect; inconclusive = small, poorly fitted or top-dose-only effect, or effect the other way; inactive = no such curve, though single readings can be large or run the other way.
Your response should consist of one outcome taken from YES = active, NO = inactive

>>> discrete_label("N#CC[C@H](C1CCCC1)n1cc(-c2ncnc3[nH]ccc23)cn1")
"YES"
>>> discrete_label("COc1ccc2c(c1)CN(C(=O)CCN1CCC(Cc3ccccc3)CC1)CCS2")
"YES"
>>> discrete_label("OC[C@@]1(O)CO[C@@H](OC[C@H]2O[C@@H](Oc3ccccc3)[C@H](O)[C@@H](O)[C@@H]2O)[C@@H]1O")
"NO"
>>> discrete_label("COc1cc(O)c2c(c1)C1=CC(O)C(O)CC1(C)OC2=O (stereo unspecified)")
"NO"
>>> discrete_label("O=C(Nc1ccc(Cl)cc1)Nc1ccc(Cl)c(Cl)c1")
"YES"
>>> discrete_label("C=CC1C(OC2OC(CO)C(O)C(O)C2O)OC=C2C(=O)N3C(C(=O)O)Cc4c([nH]c5ccccc45)C3CC21 (stereo unspecified)")
"NO"
>>> discrete_label("Cc1ccc(NS(=O)(=O)c2cc3c(cc2N[C@H](C)CO)NC(=O)CC3)cc1C")
"YES"
>>> discrete_label("CC1(C)OC(=O)NC1=O")
"NO"

Field: outcome | Entry: Clc1ccc(C(c2ccccc2Cl)C(Cl)Cl)cc1 (stereo unspecified)
NO

Another: C#C[C@]1(O)CC[C@H]2[C@@H]3[C@H](C)CC4=C(CCC(=O)C4)[C@H]3CC[C@@]21C
NO

Another: COc1c(O)cc2c(c1O)[C@@H]1O[C@H](CO)[C@@H](O)[C@H](O)[C@H]1OC2=O
NO

Another: CC(=O)NC1C(OC(C)(C)C2CCC3(C)C=C(C4CCC5C4(C)CC(O)C4OC(C(C)(C)O)CCC45C)CCC3O2)OC(CO)C(O)C1O (stereo unspecified)
YES

Another: Cc1cc(C)c(CNC(=O)c2cc(-c3ccc(CN4CCOCC4)cc3)cc3c2cnn3C2CCCC2)c(=O)[nH]1
NO

Another: CC(C)CN(C[C@@H](O)[C@H](Cc1ccccc1)NC(=O)O[C@@H]1CO[C@H]2OCC[C@H]21)S(=O)(=O)c1ccc(N)cc1
NO

Another: COc1ccc(CNC(=O)c2cc(-c3cncc(C)c3)ncc2-c2nccs2)nc1OC
NO

Another: COc1cccc2c1C(=O)c1c(O)c3c(c(O)c1C2=O)C[C@@](O)(/C(CO)=N/NC(=O)CCCCCN1C(=O)C=CC1=O)C[C@@H]3O[C@H]1C[C@H](N)[C@H](O)[C@H](C)O1
YES

Another: COC(=O)C[C@H]1[C@]2(C)C3=C(C)[C@H](c4ccoc4)C[C@H]3O[C@@H]2[C@H](O)C2[C@](C)(C(=O)OC)C=CC(=O)[C@@]21C (stereo partly specified)
NO

Another: N#Cc1cccc(-c2nc(-c3cccnc3)no2)c1
NO

Another: COc1cc(C(=O)OCC2=CCC3C(C(=O)O)=COC(O[C@@H]4O[C@H](CO)[C@@H](O)[C@H](O)[C@H]4O)C23)ccc1O (stereo partly specified)
NO

Another: C[C@]12C[C@H](O)[C@H]3[C@@H](CCC4=CC(=O)CC[C@@]43C)[C@@H]1CC[C@@H]2C(=O)CO
NO

Another: COc1ccccc1N1CCN(CCCCNC(=O)c2ccc(-c3ccc(C(C)=O)cc3)cc2)CC1
NO

---

# Test Method Notes: Quantitative highthroughput screen to assess conditional lethalithy of P12 Ichikawa cells grown in RPMI1640 with dialyzed fetal bovine serum (RPMI+ds) (AID 1963880); note: nearly all actives have a fitted effect of over 35% in size
# Condition Set: ATP luminescence, 48 h; P12-Ichikawa viability; series mostly up to 45.8 µM
Inconclusive results are not listed. The source made the active and inactive calls. Calls come from the whole dose curve; as a rule, active = well fitted cell-killing curve with a large enough effect; inconclusive = small, poorly fitted or top-dose-only effect; inactive = flat fitted curve, though single readings scatter.
Your response should consist of one outcome taken from t (active), f (inactive)

>>> discrete_label("COc1cc(-c2nn(C3CCC(N4CCN(C(C)=O)CC4)CC3)c3ncnc(N)c23)ccc1NC(=O)c1cc2ccccc2n1C (stereo not drawn)")
"f"

Field: outcome | Entry: CC1Cc2ccccc2N1NC(=O)c1ccc(Cl)c(S(N)(=O)=O)c1 (stereo not drawn)
f

Another: CC[C@@]1(O)C[C@H](O[C@H]2C[C@H](N(C)C)[C@H](O[C@H]3C[C@H](O)[C@H](O[C@H]4CCC(=O)[C@H](C)O4)[C@H](C)O3)[C@H](C)O2)c2c(cc3c(c2O)C(=O)c2c(O)cccc2C3=O)[C@@H]1C(=O)OC
t

---

# Test Method Notes: Quantitative highthroughput screen to assess conditional lethalithy of NOMO1 cells grown in RPMI1640 with untreated serum (RPMI+s) (AID 1963876); note: nearly all actives have a fitted effect of over 35% in size
# Condition Set: NOMO1 AML cells in RPMI+serum, CellTiter-Glo viability, 48 h; series mostly up to 45.8 µM
Records with an inconclusive call do not appear. The source made the active and inactive calls. Calls come from the whole dose curve; as a rule, active = well fitted cell-killing curve with a large enough effect; inconclusive = small, poorly fitted or top-dose-only effect; inactive = flat fitted curve, though single readings scatter.
Your response should consist of one outcome taken from active, inactive

>>> discrete_label("c1ccc2c(CCNc3ccc(Nc4ccncc4)cc3)c[nH]c2c1")
"active"
>>> discrete_label("O=C(O)c1cc(O)c2c(c1)C(=O)c1cccc(O)c1C2=O")
"inactive"
>>> discrete_label("CN1[C@H]2CC[C@H]1CC(OC(=O)c1c[nH]c3ccccc13)C2 (stereo partly drawn)")
"inactive"
>>> discrete_label("COc1ccc2cccc(CCNC(C)=O)c2c1")
"inactive"
>>> discrete_label("CN(Cc1cc(Br)cc(Br)c1N)C1CCCCC1")
"inactive"
>>> discrete_label("COC1CCC(N(C(=O)C2CCC(C)CC2)c2cc(C3=CCCCC3)sc2C(=O)O)CC1 (stereo not drawn)")
"inactive"

Field: outcome | Entry: CCc1ccc(OCc2ccccc2C(=O)Nc2ccc3nc(C)cc(N)c3c2)cc1
active

Another: CC(C)c1noc(N2CCC(COc3ccc(-c4ccc(S(C)(=O)=O)cc4)nc3)CC2)n1
inactive

Another: COCCCOc1ccnc(CS(=O)c2nc3ccccc3[nH]2)c1C (stereo not drawn)
inactive

Another: CC(C)C(=O)Oc1ccc(CO)cc1[C@H](CCN(C(C)C)C(C)C)c1ccccc1
inactive

Another: C[C@]12CC[C@H](O)CC1=CC[C@@H]1[C@H]2CC[C@]2(C)C(c3cccnc3)=CC[C@H]12
inactive

Another: CN(C)c1ccc(C2Nc3ccc4ccccc4c3C3=C2C(=O)CC(C)(C)C3)cc1Br (stereo not drawn)
inactive

Another: NCCc1cnc[nH]1
inactive

Another: Cn1c(NCCN(CCO)CCCc2ccc([N+](=O)[O-])cc2)cc(=O)n(C)c1=O
inactive

Another: CCCCCCCCCCCCCC(=O)N[C@H](CO)[C@H](O)c1ccc([N+](=O)[O-])cc1
active

Another: CN(C)c1ccc(-c2nc3ncc(Cl)c(N4CCN(CC(=O)Nc5nccs5)CC4)c3[nH]2)cc1
inactive

Another: COc1cc2nc(N3CCN(C(=O)C4COc5ccccc5O4)CC3)nc(N)c2cc1OC (stereo not drawn)
inactive

Another: CNS(=O)(=O)Cc1ccc2[nH]cc(CCN(C)C)c2c1
inactive
